Where these numbers come from: the array DNA melting data of Ke et al. (doi:10.1101/2024.01.08.574731)

assay: folding enthalpy; higher = less favourable; fluorescence melt of hairpins on a sequencing array, two-state fit; settings: sodium 0.088 M
PROPERTY_NAME: folding enthalpy (kcal/mol)
Write the value in kcal/mol as a bare number.

Please review the following examples before continuing.
GATCAGTCTCTGATC ((((((...))))))
-40.3
GGACTGAAAAGTCC (((((....)))))
-25.9
GGTTTCGGAAACGAAACC (((((((....)))))))
-46

Query block: Quick check: folding enthalpy of GCCTGGCGAAAGCTGGGC (((..((....))..))) ?
Result block: -28.2

Query block: Quick check: folding enthalpy of GGTTGCGAAAGCATCACC ((((((....)))..))) ?
Result block: -13

Query block: Quick check: folding enthalpy of GTGGTAGGAAACCACCAC (((((.(....).))))) ?
Result block: -22.5

* * *

test: folding enthalpy; higher = less favourable; fluorescence melt of hairpins on a sequencing array, two-state fit; settings: sodium 0.088 M
Give yes when the value for folding enthalpy is at least -30 kcal/mol. Give no when it is less.

Solved cases (5 shown):
GATCTTTCTCAAGATC ((((((....))))))
no
GATCTCGGCGAGATC ((((((...))))))
no
GACTAACGAAAGTTGGTC (((.(((....))).)))
no
GGAGTCGAAAGACCTCC ((((((....))).)))
yes
GCTGACGGAAACACCAGC ((((..(....)..))))
yes

With those in mind, consider the next sequence.
Query block: Would you say GTAGCCGAAAGGCTGTAC ((((((....)))..))) shows folding enthalpy at minimum -30 kcal/mol?
Result block: yes

* * *

assay: melting temperature; fluorescence melt of hairpins on a sequencing array, two-state fit, raised by 9.35 °C to match UV melts; details: sodium 0.088 M
Lab note: compare Tm with 40 °C, writing condition met if less and condition not met if equal or more.

GATCCGTGTACGGATC ((((((....))))))
condition not met
GAACATGGAAACATGTCC (.(((((....))))).)
condition met
GATGGCGAAAGCCAAATC ((((((....)))..)))
condition met

Query block: hey, is Tm for GGTATTGGAAACAATGCC ((.((((....)))).)) lower than 40 °C or not?
Result block: condition not met

Query block: hey, is Tm for CGAGCGGAAACGCGCTCG ((((((....)))..))) lower than 40 °C or not?
Result block: condition not met

Query block: hey, is Tm for GATCAAGGGATTGATC ((((((....)))))) lower than 40 °C or not?
Result block: condition not met

* * *

assay: folding enthalpy; higher = less favourable; fluorescence melt of hairpins on a sequencing array, two-state fit; conditions: sodium 0.088 M
Below, each entry is listed with its recorded folding enthalpy.

Please review the following examples before continuing.
GTCAGAGGAAACTCCAAC ((..(((....)))..))
-4.46 kcal/mol
GTTGTCGGAAACAACAAC (((((.(....).)))))
-23.4 kcal/mol
GCTGAGCGAAAGCCCGGC ((.(.((....)).).))
-20.1 kcal/mol
GCCGACGGAAACGTCAGC ((.((((....)))).))
-23.6 kcal/mol
CGTGACGGAAACGTTACG (((.(((....))).)))
-29.3 kcal/mol

Query block: Quick check: folding enthalpy of GTAAGCGAAAGCTACTAC ((((((....)))..))) ?
Result block: -14.1 kcal/mol

* * *

assay: folding enthalpy; higher = less favourable; fluorescence melt of hairpins on a sequencing array, two-state fit; settings: sodium 0.088 M
PROPERTY_NAME: folding enthalpy
Express your answer as a number followed by its unit.

Please review the following examples before continuing.
GATCATTGGATGATC ((((((...))))))
-31.7 kcal/mol
GCAAAGGGAAACCTTCGC ((.((((....)))).))
-26.8 kcal/mol
GCTTGGCGAAAGCCTTGC ((..(((....)))..))
-18.1 kcal/mol
GCGCACCGAAAGGTACGC (((.(((....))).)))
-42.3 kcal/mol
GCTCTCGAAAGAGCTAGC ((((((....)))..)))
-15.5 kcal/mol

Query block: Quick check: folding enthalpy of GCTATCGGAAACGATAGC (((((((....))))))) ?
Result block: -52.4 kcal/mol

Query block: Quick check: folding enthalpy of GCCAAGCGAAAGCAGGGC (((..((....))..))) ?
Result block: -26.4 kcal/mol

Query block: Quick check: folding enthalpy of GATCCGTGAGCGGATC ((((((....)))))) ?
Result block: -35.6 kcal/mol

Query block: Quick check: folding enthalpy of GATTGGGGAAACCCAGTC ((.((((....)))).)) ?
Result block: -24.4 kcal/mol

Query block: Quick check: folding enthalpy of GTGGTTGGAAACAGTCAC (((..((....))..))) ?
Result block: -19.4 kcal/mol

Query block: Quick check: folding enthalpy of GCGTAAGAACGC ((((....)))) ?
Result block: -15.8 kcal/mol

Query block: Quick check: folding enthalpy of GATCAACAAATTGATC ((((((....)))))) ?
Result block: -31.3 kcal/mol

* * *

Below, each entry is listed with its recorded Tm.
assay: melting temperature; fluorescence melt of hairpins on a sequencing array, two-state fit, raised by 9.35 °C to match UV melts; settings: sodium 0.088 M
Write the value in °C as a bare number.

GCTGCCGAAAGGCGAAGC ((((((....)))..)))
49

Query block: Quick check: Tm of GCGGTCGAAAGACTCGC ((((((....))).))) ?
Result block: 54.6

Query block: Quick check: Tm of GATCTGCTACAGATC ((((((...)))))) ?
Result block: 49.6

* * *

assay: melting temperature; fluorescence melt of hairpins on a sequencing array, two-state fit, raised by 9.35 °C to match UV melts; details: sodium 0.088 M
PROPERTY_NAME: Tm (°C)
Write the value in °C as a bare number.

GATCATGTGATGATC ((((((...))))))
47.2
GAAAACGGAAACGTTTTC (((((((....)))))))
57.9
GCACTGCGAAAGCATGGC ((..(((....)))..))
44.8
GCACAACGAAAGTTATGC (((.(((....))).)))
44.5
GGGCTCGAAAGAGTACCC ((((((....)))..)))
45

Shift focus to the following entry.
Query block: Quick check: Tm of GATCCTCGGAGGATC ((((((...)))))) ?
Result block: 51.6

* * *

Below, each entry is listed with its recorded folding enthalpy.
assay: folding enthalpy; higher = less favourable; fluorescence melt of hairpins on a sequencing array, two-state fit; conditions: sodium 0.088 M
Write the value in kcal/mol as a bare number.

Please review the following examples before continuing.
GACCTCGGAAACGAGACC (..((((....))))..)
-11.8
GCCCAGCGAAAGCGGAGC ((.(.((....)).).))
-12.7
GGTCGACGAAAGTCACC (((.(((....))))))
-16.2

Query block: Quick check: folding enthalpy of GGGGACACGAAAGTGCCC (((..(((....)))))) ?
Result block: -20.5

Query block: Quick check: folding enthalpy of GCTCGAGGAAACTTGGGC ((.(.((....)).).)) ?
Result block: -19.4

* * *

assay: folding enthalpy; higher = less favourable; fluorescence melt of hairpins on a sequencing array, two-state fit; settings: sodium 0.088 M
PROPERTY_NAME: folding enthalpy

Please review the following examples before continuing.
GATACCGAAAGGTTGATC ((((((....)))..)))
-13.6 kcal/mol
GCCTCTACGAAAGTAGGC (((..(((....))))))
-12.2 kcal/mol
GGAGGCGCGAAAGCGTCC (((..(((....))))))
-8.65 kcal/mol
GATCACAGCAGTGATC ((((((....))))))
-40.3 kcal/mol
GACTGCCGAAAGGCCGTC (((.(((....))).)))
-25 kcal/mol

Shift focus to the following entry.
Query block: Quick check: folding enthalpy of GAAAGGGGAAACCCTTTC (((((((....))))))) ?
Result block: -47 kcal/mol

* * *

test: folding enthalpy; higher = less favourable; fluorescence melt of hairpins on a sequencing array, two-state fit; conditions: sodium 0.088 M
PROPERTY_NAME: folding enthalpy (kcal/mol)
Write the value in kcal/mol as a bare number.

Please review the following examples before continuing.
GATCTAAAGATAGATC ((((((....))))))
-16.5
GTCATTCGAAAGAAAGAC (((.(((....))).)))
-30.6
GAACATGGAAACATGTCC (.(((((....))))).)
-15.4

Query block: Quick check: folding enthalpy of GATCTGTGAGCAGATC ((((((....)))))) ?
Result block: -40

Query block: Quick check: folding enthalpy of GGCAACGGAAACGCTGCC ((((.((....)).)))) ?
Result block: -41.8

Query block: Quick check: folding enthalpy of GCGTTAACGAAAGTTCGC (((..(((....)))))) ?
Result block: -29.4
